Every entry's value here was drawn from PubChem BioAssay (NCI).

Tested on: SF-539 CNS
methodNotes: NCI-60 one-dose screen, 48 h (100 = growth as untreated, 0 = no growth, -100 = all killed)
assayConditions: 10 µM unless noted
The panel holds about 83,000 compounds, 20% with a hit somewhere; the sample as a whole holds those more often.
propertyMeasured: growth (%)

Cn1c(O)c(C=NCCN=Cc2c(O)n(C)c(=O)n(C)c2=O)c(=O)n(C)c1=O :: 93.9
CCN1CCN(Cc2cn(CC(=O)Nc3ccc4c(ccn4Cc4ccccc4)c3)nn2)CC1 :: 102
O=C1c2c(c3c4ccc(Br)cc4oc3c3[nH]c4ccccc4c23)C(=O)N1O :: 7.26
O=C1N(Cc2ccccc2Cl)c2ccccc2C12NN=C(c1cccc(Cl)c1)S2 (stereo not given) :: 6.32
Cc1ccc(NC(=S)NNC(=S)NNc2ccccc2)cc1C :: 103
Brc1c2c(c(Br)c3ccccc13)CCCC2 :: 102
O=C(Cn1c(=O)sc2nc3ccccc3nc21)Nc1ncc(Cc2cccc(Cl)c2Cl)s1 :: 98.7
O=C1c2ccc3c4ccc5c6c(ccc(c7ccc(c2c37)C(=O)N1CCC[P+](c1ccccc1)(c1ccccc1)c1ccccc1)c64)C(=O)N(CCC[P+](c1ccccc1)(c1ccccc1)c1ccccc1)C5=O :: 47.4
C#Cc1ccc(NC(=O)c2ccc(/C=C/C(=O)c3nccn3C)cc2)cc1 :: -96.7
O=C1/C(=C/c2ccccc2Br)COc2ccc(O)c(O)c21 :: -25.7
COc1ccc(-c2cn(-c3cc(OC)c(OC)c(OC)c3)c(=O)n2C(C)=O)cc1 :: 97
Cc1ccc(C(C(N)=O)C(C(N)=O)c2ccccc2)cc1 (stereo not given) :: 119
Cc1ccc2c3c(c(=O)[nH]c2c1)C1(C(C#N)=C(N)O3)c2cc(Br)ccc2-c2ccc(Br)cc21 :: -51
S=C1CCSC(=S)N1CCCN1C(=S)CCSC1=S :: 71.6
NC(=O)c1c(NC(=O)c2ccccc2)sc2c1CCC(=O)C2 :: 16.1
O=C(Cc1ccccc1)Nc1nc(O)c(/C=C2\C(=O)C=Cc3ccccc32)s1 :: 102
CC(C)(C)n1cc(-c2ccnc(NCCNS(=O)(=O)c3cccc4ccccc34)c2)c(-c2cccc(F)c2)n1 :: -74.8
CCO/C=N/C1=C(C#N)C(c2ccc(OC)cc2)c2sc3c(F)cccc3c2O1 (stereo not given) :: -23.7
O=C1N[C@@H]2NC(=[N+]3CCOCC3)N[C@@H]2N1 :: 98.2
N#C/C(=C\c1ccc2ccccc2c1)c1cc2ccccc2[nH]1 :: 32.9

* * *

System: BT-549 breast
methodNotes: NCI-60 one-dose screen, 48 h
assayConditions: 10 µM unless noted
The panel holds about 83,000 compounds, 20% with a hit somewhere; the sample as a whole holds those more often. Activity calls are given as the source filed them. How the source made its calls: active means growth percent below 10; inactive means the rest.
Possible outcomes: true (1) (active), false (0) (inactive)

CCNC(=O)c1[nH]cc(-c2ccccc2)c1-c1cc(OC)c2c(c1OC)OCO2 :: false (0)
O=C(Nc1ccc(NC(=O)c2cc(=O)[nH]c3ccccc23)cc1)Nc1cccc(C(F)(F)F)c1 :: false (0)
CCOC(=O)c1c(C)c2c(n1C)CSc1cc(C(=O)c3ccccc3)c(=O)[nH]c1-2 :: false (0)
Cc1c(-c2nc3ccc(F)cc3c(=O)[nH]2)c2ccccc2n1C :: false (0)
N#Cc1cccc(NC(=O)c2oc3ccccc3c2-c2cnn(-c3ccccc3)c2)c1 :: false (0)
O=C(Nn1c2c(sc1=Nc1ccccc1)C(=O)c1ccccc1C2=O)c1cc2ccc1CCc1ccc(cc1)CC2 :: false (0)
O=C(CSc1nnc2n1S(=O)(=O)c1ccccc1N2c1ccccc1)Nc1nc2ccc(F)cc2s1 :: false (0)
O=[N+]([O-])C1C(c2ccccc2)C12c1ccccc1-c1ccccc12 (centres undefined) :: true (1)
C=CCc1c2c(c(OC)c3ccoc13)C(=O)/C(=C/c1ccccc1OC)O2 :: false (0)
CN1CCN(c2ccc(C(=O)Nc3cccc(C#Cc4cccc5[nH]nc(N)c45)c3)cc2C(F)(F)F)CC1 :: false (0)
O=C(c1cc2ccccc2o1)c1nn(-c2ccccc2)/c(=N/N=Cc2cn(-c3ccccc3)nc2-c2cc3ccccc3oc2=O)s1 :: false (0)
CCOC(=O)c1c(C)nc2c(c1N)CC(=O)N2Cc1cc(F)cc(Cl)c1 :: false (0)
COc1ccc(C2=Nc3c/c(=C\c4c(O)[nH]c5ccc(Cl)cc45)ccc3=N2)cc1 :: false (0)
CC(=O)OC[C@]12CCC(C)(C)C[C@H]1[C@@]1(O)[C@H](O)C[C@@H]3[C@@]4(C)CCCNC(C)(C)[C@@H]4CC[C@@]3(C)[C@]1(C)CC2 :: false (0)
CN1CCN(c2ccc(NC(=O)c3cncnc3Nc3ccc(OCc4ccccn4)c(Cl)c3)cc2)CC1 :: false (0)
N#Cc1cccc(-c2c(-c3ccc4ccccc4c3)oc3ccccc3c2=O)c1 :: false (0)
COc1ccc(-c2nc(/C=C3\SC(=NCc4ccccc4)NC3=O)c3ccccn23)cc1 :: true (1)
Cn1c(=O)c2c(nc(NC3=NS(=O)(=O)c4ccccc43)n2CC(=O)N2CCc3ccccc32)n(C)c1=O :: false (0)
Oc1c(Cl)cc(Cl)c2ccc(Cn3cc(-c4cc(C(F)(F)F)cc(C(F)(F)F)c4)nn3)nc12 :: false (0)
